- METHOD_NOTES: small-molecule microarray binders of probe aDKK1, primary screen, biochemical, biotinylated probe, 635/667 nm fluorescence (AID 1099);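 further: score merges 667nm spot fluorescence with signal to noise across triplicate slides; reference of the scale not given here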
- ASSAY_CONTEXT: higher = more signal
Classification field: y = composite z-score at or over 0.6; n = composite z-score under 0.6.

>>> group("COCCOC(=O)N1C(=O)[C@@]2(c3cc(C#CCNC(N)=O)ccc31)[C@H](C(=O)NC[C@H](O)c1ccccc1)[C@H]1C(=O)O[C@H](c3ccccc3)[C@H](c3ccccc3)N1[C@@H]2c1ccc(OCCO)cc1")
"n"
>>> group("COC(=O)[C@H](Cc1ccc(O)cc1)N1CC2=CCCC=C[C@@H]2[C@H]1[C@H](O)Cc1ccccc1")
"n"
>>> group("COCCCNC(=O)[C@@H]1c2ccccc2C(=O)N(Cc2cc(C(F)(F)F)cc(C(F)(F)F)c2)[C@H]1c1ccc(CO)cc1")
"y"
>>> group("COC(=O)[C@@]1(Cc2ccccc2)[C@H]2c3cc(C(=O)N4CCCC4)n(Cc4ccc(C(F)(F)F)nc4)c3C[C@H]2CN1C(=O)c1ccccc1")
"n"
>>> group("COc1cc(OC)c(C(O)C2C=CC3C(=O)N(c4ccccc4)C(=O)C3N2Nc2ccccc2F)cc1Br (configuration not stated)")
"y"
>>> group("NC(=O)N1C(=O)C2C(C1=O)C1C=C(CCCO)C2C(c2ccc(CN3CCCC3)cc2)N1Cc1cccc(OC(F)(F)F)c1 (configuration not stated)")
"n"

====

- METHOD_NOTES: binders of probe aFGF2 on microarray, primary screen, stem cell growth factor project, biochemical, small-molecule microarray, fluorescence 635/667 (AID 1067);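 further: measures binding of biotinylated aFGF2 protein to printed compounds on slides; z-score merges feature fluorescence and signal-to-noise across triplicate slides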
- ASSAY_CONTEXT: higher = more signal
MEASUREMENT_NAME: composite z-score

>>> assay_value("C=C(CCCC)C(=O)CC[C@H](OC(C)=O)c1ccccc1OCCO")
-0.0471
>>> assay_value("COC(=O)[C@@]1(CCC(=O)OC(C)(C)C)N=C(c2ccc(OCCCO)cc2)O[C@H]1c1ccccc1CN=[N+]=[N-]")
-0.12
>>> assay_value("COCCOC(=O)N1C(=O)[C@@]2(c3cc(C#Cc4ccc(OC)cc4)ccc31)[C@H](C(=O)Nc1nc3ccccc3s1)[C@H]1C(=O)O[C@H](c3ccccc3)[C@H](c3ccccc3)N1[C@@H]2c1ccccc1OCCO")
-0.126
>>> assay_value("CC(C)C(=C=CC[C@@H](O)c1cccc(OCCO)c1)CCO")
-0.085
>>> assay_value("O=C1OCCC=C[C@H]2OC34C=CCN(c5ccc(Cl)cc5)C(=O)[C@H]3N(CCO)C(=O)[C@@H]4C12 (some centres not stated)")
-0.166
>>> assay_value("CCCC=C(CCC)[C@@H](NC(=O)c1ccccc1)c1ccc(C(=O)OC)cc1")
0.502
>>> assay_value("COCCOC(=O)N1C(=O)[C@@]2(c3cc(C#CCNC(N)=O)ccc31)[C@H](C(=O)NC[C@H](O)c1ccccc1)[C@H]1C(=O)O[C@H](c3ccccc3)[C@H](c3ccccc3)N1[C@@H]2c1ccc(OCCO)cc1")
0.0198

====

- TESTED_ON: E3 ubiquitin-protein ligase XIAP (Homo sapiens) (UniProt P98170)
- Sequence (P98170 whole entry, looked up): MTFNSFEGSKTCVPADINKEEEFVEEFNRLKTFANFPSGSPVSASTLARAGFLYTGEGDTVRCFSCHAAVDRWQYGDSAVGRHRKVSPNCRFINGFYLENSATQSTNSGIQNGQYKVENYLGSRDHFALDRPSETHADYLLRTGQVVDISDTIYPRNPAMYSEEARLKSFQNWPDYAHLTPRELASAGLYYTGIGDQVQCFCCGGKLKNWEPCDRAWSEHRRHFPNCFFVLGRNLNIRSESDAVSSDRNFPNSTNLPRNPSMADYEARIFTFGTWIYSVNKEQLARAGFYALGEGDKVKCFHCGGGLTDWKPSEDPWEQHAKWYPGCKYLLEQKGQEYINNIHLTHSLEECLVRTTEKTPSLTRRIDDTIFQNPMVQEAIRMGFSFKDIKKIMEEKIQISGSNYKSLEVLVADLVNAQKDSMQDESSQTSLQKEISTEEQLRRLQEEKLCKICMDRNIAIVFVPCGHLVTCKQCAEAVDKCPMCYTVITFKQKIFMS
- METHOD_NOTES: XIAP binders, primary screen, biophysical, small-molecule microarray, fluorescence 635 nm (AID 1181);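 further: score merges 667 nm emission and signal to noise over triplicate slides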
- ASSAY_CONTEXT: small-molecule microarray binding, higher = more signal
MEASUREMENT_NAME: composite z-score

>>> assay_value("C#CCN([C@H](/C=C/C1CC1)[C@@H](O)Cc1ccccc1)[C@@H](Cc1ccccc1)C(=O)OC")
0.271
>>> assay_value("COC(=O)C(CC#Cc1ccc2c(c1)[C@]1(C(=O)N2)[C@H](c2ccc(O)cc2)N2[C@H](c3ccccc3)[C@H](c3ccccc3)OC(=O)[C@H]2[C@@H]1C(=O)N1CCc2cc(OC)c(OC)cc2C1)C(=O)OC")
-0.117
>>> assay_value("C=CC[C@]1(C(=O)NCCCOC)N=C(c2ccc(OCCCO)cc2)O[C@H]1c1ccccc1")
0.102
>>> assay_value("CO[C@H]1O[C@H](CO)[C@@H](OC(=O)Nc2ccccc2)[C@@H]2OC(=O)[C@H](Cc3ccccc3)C/C=C/C[C@@H](Cc3ccccc3)C(=O)O[C@@H]12")
0.288
>>> assay_value("NC(=O)NCC#Cc1ccc2c(c1)[C@]1(C(=O)N2)[C@H](C(=O)Nc2nc3ccccc3s2)[C@H]2C(=O)O[C@H](c3ccccc3)[C@H](c3ccccc3)N2[C@@H]1c1ccc(OCCO)cc1")
0.013
>>> assay_value("C=CCN1C(=O)[C@]2(O[C@H](CCO)[C@@H]([Si](C)(C)c3ccc(OC)cc3)[C@@H]2C)c2ccccc21")
-0.144
>>> assay_value("C[C@]1(C(=O)NCC(F)(F)F)c2ccccc2C(=O)N(Cc2ccc(OC(F)(F)F)cc2)[C@H]1c1ccc(CO)cc1")
0.212
>>> assay_value("COCCOC(=O)N1C(=O)[C@@]2(c3cc(C#CC4=CCCCC4)ccc31)[C@H](C(=O)N1CCc3cc(OC)c(OC)cc3C1)[C@H]1C(=O)O[C@H](c3ccccc3)[C@H](c3ccccc3)N1[C@@H]2c1ccc(O)cc1")
0.072
>>> assay_value("COC(=O)[C@@]1(Cc2ccc(F)cc2)[C@H]2c3cc(C(=O)N(C)C)n(CCN4CCOCC4)c3C[C@H]2CN1C(=O)c1ccccc1")
0.138
>>> assay_value("O=C1OCCC/C=C\\[C@H]2OC34C=CCN(Cc5ccccc5)C(=O)[C@H]3N(CCCCCO)C(=O)[C@@H]4C12 (stereo partly drawn)")
-0.157
>>> assay_value("C=CCOC(=O)[C@@H]1[C@H]2C(=O)O[C@H](c3ccccc3)[C@H](c3ccccc3)N2[C@H](c2ccc(OCCOC(=O)[C@H]3C[C@H]4C(=O)NCC(=O)N4[C@H]3c3ccc(O)cc3)cc2)[C@@]12C(=O)Nc1ccc(I)cc12")
-0.0669
>>> assay_value("COc1ccc(CCNC(=O)[C@@]2(Sc3ccc(C)cc3)CC(=O)N(C(C)C)[C@@H]2c2ccc(CO)cc2)cc1")
0.0132
>>> assay_value("COc1ccc(NN2C(C(O)c3cc(C(F)(F)F)cc(C(F)(F)F)c3)C=CC3C(=O)N(C4CCCCC4)C(=O)C32)cc1 (stereo not drawn)")
-0.0669

====

Listing: composite z-score of selected molecules
- Test system: Sonic hedgehog protein (Shh)
- METHOD_NOTES: small-molecule binders of Shh protein, primary screen, biochemical, small-molecule microarray, 635/667 nm fluorescence (AID 1151);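 further: Shh protein binding to compounds spotted on small-molecule microarray slides; score combines spot fluorescence intensity with signal-to-noise across triplicate slides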
- ASSAY_CONTEXT: small-molecule microarray binding, 635 nm fluorescence; higher = more signal
MEASUREMENT_NAME: composite z-score

>>> assay_value("CCOC(=O)C[C@H]1[C@H](OC(=O)c2ccc(-c3ccccc3)cc2)[C@@H](NC(=O)c2ccc3ccccc3c2)c2cc(OCCCO)ccc2N1C(=O)c1ccccc1")
0.27
>>> assay_value("O=c1cccc(-c2ccccc2C(F)(F)F)o1")
-0.999
>>> assay_value("COc1ccc(C#Cc2ccc3c(c2)[C@]2(C(=O)N3)[C@H](C(=O)Nc3nc4ccccc4s3)[C@H]3C(=O)O[C@H](c4ccccc4)[C@H](c4ccccc4)N3[C@@H]2c2ccc(OCCO)cc2)cc1")
1.06
>>> assay_value("CC1CC/C=C\\[C@H]2OC34C=CCN(c5ccc(Cl)cc5)C(=O)[C@H]3N(CCCO)C(=O)[C@]4(C)C2C(=O)O1 (some centres undefined)")
0.424

====

- TESTED_ON: Epidermal growth factor receptor (Homo sapiens)
- METHOD_NOTES: EGFR binders on small-molecule microarrays, primary screen, biochemical, small-molecule microarray, 635 nm fluorescence (AID 1104);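 further: score merges 667 nm emission intensity with spot signal to noise over triplicate slides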
- ASSAY_CONTEXT: EGFR binding, higher = more signal
Entries and their composite z-score values follow.
MEASUREMENT_NAME: composite z-score

>>> assay_value("CC(C)C[C@@H]1NC(=O)[C@H]2C[C@@H](C(=O)NCCCCCNC(=O)CS)[C@@H](c3ccc(O)cc3)N2C1=O")
0.521
>>> assay_value("COCCOC(=O)N1C(=O)[C@@]2(c3cc(C#Cc4ccc(OC)cc4)ccc31)[C@H](C(=O)Nc1nc3ccccc3s1)[C@H]1C(=O)O[C@H](c3ccccc3)[C@H](c3ccccc3)N1[C@@H]2c1ccccc1OCCO")
0.29
>>> assay_value("C=CCC(OC(C)=O)[C@@H]1[C@@H](N(Cc2ccc(-c3cccc(C(F)(F)F)c3)o2)C(=O)c2cccc3ccccc23)c2cc(OCCCO)ccc2N1C(=O)c1ccc2ccccc2c1 (stereo partly drawn)")
0.142

====

- METHOD_NOTES: basal HepG2 mitochondrial membrane potential changes, profiling panel, cell-based, JC-1 fluorescence, 24 h, 100 nL compound (AID 1167); further: test concentration not given here
- ASSAY_CONTEXT: higher = more signal
Recorded z-score values for a group of compounds are listed next.
MEASUREMENT_NAME: z-score

>>> assay_value("COc1ccc(CCNC(=O)[C@@]2(C)c3ccccc3C(=O)N(Cc3cc(C(F)(F)F)cc(C(F)(F)F)c3)[C@H]2c2ccc(CO)cc2)cc1")
1.11
>>> assay_value("COC(=O)[C@]1(CO)N=C(c2ccc(OCCCO)cc2)O[C@@H]1c1ccccc1CN=[N+]=[N-]")
-0.253
>>> assay_value("O=C1c2ccccc2[C@@]2(Cc3ccccc3N(Cc3ccccc3)C2=O)[C@H](c2ccc(CO)cc2)N1Cc1ccccc1")
-0.0723
>>> assay_value("COCCOC(=O)N1C(=O)[C@@]2(c3cc(C#CCC(C(=O)OC)C(=O)OC)ccc31)[C@H](C(=O)N1CCc3cc(OC)c(OC)cc3C1)[C@H]1C(=O)O[C@H](c3ccccc3)[C@H](c3ccccc3)N1[C@@H]2c1ccc(O)cc1")
0.448
>>> assay_value("C=CCC(OC(C)=O)[C@@H]1[C@@H](N(Cc2ccc(-c3cccc(C(F)(F)F)c3)o2)C(=O)c2cccc3ccccc23)c2cc(OCCCO)ccc2N1C(=O)c1ccc2ccccc2c1 (some centres not stated)")
2.7
>>> assay_value("CC1CC/C=C\\[C@H]2OC34C=CCN(CCN5CCOCC5)C(=O)[C@H]3N(CCCCCCO)C(=O)[C@@H]4C2C(=O)O1 (some centres not stated)")
0.37
>>> assay_value("CC1CC/C=C\\[C@H]2OC34C=CCN(c5ccc(Cl)cc5)C(=O)[C@H]3N(CCCO)C(=O)[C@]4(C)C2C(=O)O1 (some centres not stated)")
-0.713
